TESTED ON: T1, human GPC3-his tag protein (human, UniProt P51654 25-559, limits assumed)
T1 construct: recombinant soluble antigen used as analyte in all Biacore runs; also called recombinant GPC3 protein; rhGPC3-His; not shown: His tag
PROTOCOL DESCRIPTION: SPR Biacore 8K, mAb captured on CM5, single dose GPC3-his
ASSAY METRIC: koff (s⁻¹)
Numbers only; they are read as s⁻¹.

I would be grateful if you could share the reported koff for 152E9F7 mouse monoclonal antibody (antibody, V domains shown, mouse hybridoma antibody) VH: QVQLQQSGAELVRPGASVTLSCKASGYTFTDYEIHWVKQTPVHGLEWIGAIDPETGDTAYTQKFKGKAILTADKSSNTVYMELRSLTSEDSAVYYCTRFYSYAYWGQGTLVTVSA VL: DVVMTQTPLSLPVSLGDQASISCRSSQSLVHTNGHTYLQWYLQKSGQSPKLLIYKVSNRFSGVPDRFSGSGSGTDFTLKISRVEAEDLGVYFCSQSTHVPYTFGGGTKLEIK . 0.000162

Attention now shifts to the item below.
I have this binder here, 163E7D12 mouse monoclonal antibody (antibody, V domains shown, mouse hybridoma antibody) VH: QVQLQQSGAELVRPGASVTLSCKASGYTFTDYEMHWVKQTPVHGLEWIGAIGPETGSTAYNQRFKGKAIVTADKSSSTAYMELRSLTSEDSAVYYCTRYYSFAYWGQGTLVTVSA VL: DVVMTQTPLSLPVSLGGQASISCRSSQSLVHSNGNTYLQWYLQKPGQSPKLLIFKVSNRFSGVPDRFSGSGSGTDFTLKISRVEAEDLGVYFCFQSIHVPYTFGGGTKLEIK , and I need its recorded koff. 0.000169
